Target: p110γ (Homo sapiens, UniProt P48736)
Sequence (P48736 whole entry): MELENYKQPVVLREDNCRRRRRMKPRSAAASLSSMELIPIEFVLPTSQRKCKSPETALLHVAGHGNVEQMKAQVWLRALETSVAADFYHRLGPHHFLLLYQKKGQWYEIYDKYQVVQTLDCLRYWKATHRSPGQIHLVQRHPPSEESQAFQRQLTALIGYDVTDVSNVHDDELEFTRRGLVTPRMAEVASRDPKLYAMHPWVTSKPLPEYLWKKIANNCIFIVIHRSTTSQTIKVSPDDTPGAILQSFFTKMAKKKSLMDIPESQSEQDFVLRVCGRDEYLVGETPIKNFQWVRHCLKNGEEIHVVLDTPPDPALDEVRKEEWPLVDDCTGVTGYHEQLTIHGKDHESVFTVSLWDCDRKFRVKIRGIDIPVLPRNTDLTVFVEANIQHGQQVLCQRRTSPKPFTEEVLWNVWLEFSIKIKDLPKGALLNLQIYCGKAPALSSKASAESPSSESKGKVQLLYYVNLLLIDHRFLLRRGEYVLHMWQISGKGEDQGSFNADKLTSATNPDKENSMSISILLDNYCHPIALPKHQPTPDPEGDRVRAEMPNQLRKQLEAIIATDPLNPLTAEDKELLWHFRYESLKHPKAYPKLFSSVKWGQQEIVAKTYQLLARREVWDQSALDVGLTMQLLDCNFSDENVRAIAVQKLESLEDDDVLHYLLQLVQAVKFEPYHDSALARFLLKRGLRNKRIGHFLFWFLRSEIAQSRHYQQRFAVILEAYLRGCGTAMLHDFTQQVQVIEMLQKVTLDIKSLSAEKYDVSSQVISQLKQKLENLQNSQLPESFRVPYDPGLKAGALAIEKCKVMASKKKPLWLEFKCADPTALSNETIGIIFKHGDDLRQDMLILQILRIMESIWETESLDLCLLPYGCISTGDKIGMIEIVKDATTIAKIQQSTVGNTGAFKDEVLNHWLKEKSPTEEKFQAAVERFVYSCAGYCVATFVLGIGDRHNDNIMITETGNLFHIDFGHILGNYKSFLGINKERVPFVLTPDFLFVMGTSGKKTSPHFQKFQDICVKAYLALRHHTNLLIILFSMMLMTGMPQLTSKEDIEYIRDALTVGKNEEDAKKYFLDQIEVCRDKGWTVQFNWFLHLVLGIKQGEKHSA
experimental endpoint: IC50
Output should be the measured figure followed by the unit it is expressed in.

Prompt line: What measured IC50 goes with CC(C)n1c([C@H](C)Nc2ncnc(N)c2C#N)cc2cccc(-c3ccc(=O)n(C)c3)c2c1=O ?
Response line: 2190 nM

###

Biological target: p110δ (Homo sapiens, UniProt O00329)
Construct: heterodimers consisting of full length p110α, p110β, or p110δ catalytic subunit and the p85α regulatory subunit
Sequence (O00329 whole entry): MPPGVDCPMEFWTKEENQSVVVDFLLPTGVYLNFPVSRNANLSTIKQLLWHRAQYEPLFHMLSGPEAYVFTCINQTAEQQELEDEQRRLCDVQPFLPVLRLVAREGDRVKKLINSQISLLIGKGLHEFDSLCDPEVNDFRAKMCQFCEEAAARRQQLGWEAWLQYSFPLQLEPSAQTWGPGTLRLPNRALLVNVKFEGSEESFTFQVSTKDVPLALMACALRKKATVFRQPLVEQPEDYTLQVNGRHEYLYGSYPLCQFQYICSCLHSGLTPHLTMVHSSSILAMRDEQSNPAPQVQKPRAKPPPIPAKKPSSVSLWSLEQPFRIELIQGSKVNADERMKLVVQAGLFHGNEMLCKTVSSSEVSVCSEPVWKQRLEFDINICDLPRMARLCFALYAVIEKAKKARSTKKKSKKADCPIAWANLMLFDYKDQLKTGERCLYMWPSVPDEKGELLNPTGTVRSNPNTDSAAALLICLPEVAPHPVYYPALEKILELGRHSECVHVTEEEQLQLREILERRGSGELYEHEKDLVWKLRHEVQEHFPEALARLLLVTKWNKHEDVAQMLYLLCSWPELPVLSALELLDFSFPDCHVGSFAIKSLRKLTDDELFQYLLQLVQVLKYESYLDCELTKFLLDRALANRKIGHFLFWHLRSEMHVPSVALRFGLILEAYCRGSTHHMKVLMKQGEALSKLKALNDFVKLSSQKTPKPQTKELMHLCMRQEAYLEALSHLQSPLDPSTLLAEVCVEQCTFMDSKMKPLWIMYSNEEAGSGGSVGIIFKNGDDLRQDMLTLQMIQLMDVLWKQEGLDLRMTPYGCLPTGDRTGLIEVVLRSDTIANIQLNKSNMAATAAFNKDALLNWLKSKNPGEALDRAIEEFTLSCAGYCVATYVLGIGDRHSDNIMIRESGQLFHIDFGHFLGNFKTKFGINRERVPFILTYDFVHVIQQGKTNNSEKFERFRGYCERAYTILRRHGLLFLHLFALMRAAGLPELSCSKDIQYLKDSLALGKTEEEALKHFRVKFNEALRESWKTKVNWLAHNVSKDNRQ
Sequence (P27986 whole entry partner): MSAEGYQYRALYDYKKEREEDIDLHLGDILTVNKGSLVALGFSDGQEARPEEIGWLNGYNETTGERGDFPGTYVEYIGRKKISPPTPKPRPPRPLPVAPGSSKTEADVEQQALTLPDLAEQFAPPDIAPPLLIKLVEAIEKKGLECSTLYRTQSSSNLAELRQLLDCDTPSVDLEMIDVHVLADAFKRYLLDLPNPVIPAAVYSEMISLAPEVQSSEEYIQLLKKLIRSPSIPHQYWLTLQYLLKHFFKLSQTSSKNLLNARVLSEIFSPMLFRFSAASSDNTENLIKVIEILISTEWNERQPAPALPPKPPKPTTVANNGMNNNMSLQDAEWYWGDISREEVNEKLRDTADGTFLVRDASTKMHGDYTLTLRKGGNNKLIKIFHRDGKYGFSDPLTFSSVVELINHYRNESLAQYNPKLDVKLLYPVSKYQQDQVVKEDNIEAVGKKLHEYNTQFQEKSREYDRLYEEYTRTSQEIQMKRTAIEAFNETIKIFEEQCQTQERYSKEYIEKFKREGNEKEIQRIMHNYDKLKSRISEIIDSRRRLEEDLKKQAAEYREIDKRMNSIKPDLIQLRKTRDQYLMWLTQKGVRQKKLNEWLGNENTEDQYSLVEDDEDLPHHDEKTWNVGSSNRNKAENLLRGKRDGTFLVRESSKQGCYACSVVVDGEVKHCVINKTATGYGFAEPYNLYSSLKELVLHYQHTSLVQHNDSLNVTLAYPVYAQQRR
Assay: PI3K enzymatic assay (ADP-Glo) with purified enzymes
Conditions: purified enzyme, mean ± spread (n), read-out: Biochemical IC50
experimental endpoint: pIC50
Please treat pIC50 as minus the base-10 logarithm of the molar concentration.

Prompt line: Given the compound CC(C)n1c([C@H](C)Nc2ncnc(N)c2C#N)cc2cccc(-c3ccc(=O)n(C)c3)c2c1=O , what is its reported pIC50?
Response line: 8.60

###

Target: p110α (Homo sapiens, UniProt P42336)
Construct: heterodimers consisting of full length p110α, p110β, or p110δ catalytic subunit and the p85α regulatory subunit
Sequence (P42336 whole entry, one chain of several): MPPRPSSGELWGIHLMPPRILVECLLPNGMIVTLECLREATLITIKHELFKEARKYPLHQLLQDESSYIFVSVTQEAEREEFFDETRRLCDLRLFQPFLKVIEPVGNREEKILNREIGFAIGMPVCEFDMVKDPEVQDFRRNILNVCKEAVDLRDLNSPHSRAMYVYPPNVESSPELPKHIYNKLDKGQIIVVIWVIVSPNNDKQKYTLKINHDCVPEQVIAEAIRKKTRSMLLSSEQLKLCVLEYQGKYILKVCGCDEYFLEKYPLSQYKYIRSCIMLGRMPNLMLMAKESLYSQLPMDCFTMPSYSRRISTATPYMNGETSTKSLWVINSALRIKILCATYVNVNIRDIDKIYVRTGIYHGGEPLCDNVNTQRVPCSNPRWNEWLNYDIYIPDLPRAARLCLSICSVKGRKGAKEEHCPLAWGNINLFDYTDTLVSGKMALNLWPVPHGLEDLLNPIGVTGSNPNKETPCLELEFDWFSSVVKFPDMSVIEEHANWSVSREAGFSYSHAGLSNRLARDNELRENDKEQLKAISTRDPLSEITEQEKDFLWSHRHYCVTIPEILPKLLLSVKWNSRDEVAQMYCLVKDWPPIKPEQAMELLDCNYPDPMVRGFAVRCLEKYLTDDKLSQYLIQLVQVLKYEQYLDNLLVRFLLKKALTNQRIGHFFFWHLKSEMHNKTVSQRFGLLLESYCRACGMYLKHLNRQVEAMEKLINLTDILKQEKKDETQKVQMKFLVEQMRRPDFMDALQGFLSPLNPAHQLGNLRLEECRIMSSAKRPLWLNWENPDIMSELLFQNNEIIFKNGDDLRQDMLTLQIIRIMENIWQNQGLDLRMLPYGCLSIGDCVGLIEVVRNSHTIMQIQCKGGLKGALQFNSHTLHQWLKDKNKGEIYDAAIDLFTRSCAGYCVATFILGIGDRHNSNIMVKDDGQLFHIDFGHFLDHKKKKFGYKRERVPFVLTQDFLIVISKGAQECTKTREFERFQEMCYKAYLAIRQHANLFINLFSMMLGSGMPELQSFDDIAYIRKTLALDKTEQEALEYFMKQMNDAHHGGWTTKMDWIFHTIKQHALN
Test: PI3K enzymatic assay (ADP-Glo) with purified enzymes
Conditions: purified enzyme, mean ± spread (n), read-out: Biochemical IC50
Description: Human recombinant PI3K-α (cat. no. 14-602-K), -β (cat. no. 14-603-K), -δ (cat. no. 14-604-K), and -γ (cat. no. 14-558-K) were purchased from Millipore. […] Reactions were incubated at room temperature for 2 h, with PI3K activity assessed via the Promega ADP-Glo Max assay kit (cat. no. V7002) according to the manufacturer’s instruction. Plates were read on Envision plate reader in luminescence mode.
experimental endpoint: pIC50
For clarity, pIC50 is expressed as the negative log10 of concentration in mol/L.

Prompt line: Requested read-out pIC50, target or system p110α (Homo sapiens, UniProt P42336), entry CC(C)n1c([C@H](C)Nc2ncnc(N)c2C#N)cc2cccc(-c3ccc(=O)n(C)c3)c2c1=O [IPI-3063]
Response line: 5.93

###

Molecular target: p110β (Homo sapiens, UniProt P42338)
Sequence (P42338 whole entry, one chain of several, canonical isoform): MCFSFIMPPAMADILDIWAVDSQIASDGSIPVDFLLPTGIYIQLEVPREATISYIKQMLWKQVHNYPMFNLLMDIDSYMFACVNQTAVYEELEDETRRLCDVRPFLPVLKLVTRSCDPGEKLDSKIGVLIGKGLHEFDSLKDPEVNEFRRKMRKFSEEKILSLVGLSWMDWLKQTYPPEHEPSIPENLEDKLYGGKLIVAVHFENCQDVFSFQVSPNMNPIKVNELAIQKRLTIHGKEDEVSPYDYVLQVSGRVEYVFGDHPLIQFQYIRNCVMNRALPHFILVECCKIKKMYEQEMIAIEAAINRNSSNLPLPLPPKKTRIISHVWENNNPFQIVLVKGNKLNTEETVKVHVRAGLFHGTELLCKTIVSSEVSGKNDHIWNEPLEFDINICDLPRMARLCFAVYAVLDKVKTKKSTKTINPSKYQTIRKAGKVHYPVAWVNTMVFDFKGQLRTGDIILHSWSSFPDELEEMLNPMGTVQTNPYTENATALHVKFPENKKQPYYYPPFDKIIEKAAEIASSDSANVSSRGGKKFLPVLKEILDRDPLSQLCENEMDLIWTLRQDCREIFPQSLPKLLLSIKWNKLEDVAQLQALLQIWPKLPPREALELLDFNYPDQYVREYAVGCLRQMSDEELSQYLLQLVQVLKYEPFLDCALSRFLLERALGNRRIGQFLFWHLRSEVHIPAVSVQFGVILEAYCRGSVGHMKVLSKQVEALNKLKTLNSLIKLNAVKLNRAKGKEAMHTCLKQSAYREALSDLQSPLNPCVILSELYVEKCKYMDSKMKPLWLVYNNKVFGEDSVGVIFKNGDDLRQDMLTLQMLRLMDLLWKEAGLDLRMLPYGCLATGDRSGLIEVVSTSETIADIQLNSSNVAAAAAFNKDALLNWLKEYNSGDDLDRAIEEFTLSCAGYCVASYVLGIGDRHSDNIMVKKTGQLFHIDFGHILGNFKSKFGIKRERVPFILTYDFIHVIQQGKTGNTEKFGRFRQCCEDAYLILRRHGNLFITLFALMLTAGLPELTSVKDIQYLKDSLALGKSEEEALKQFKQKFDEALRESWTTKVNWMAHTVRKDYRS
Test: PI3K enzymatic assay (ADP-Glo) with purified enzymes
Design: heterodimers consisting of full length p110α, p110β, or p110δ catalytic subunit and the p85α regulatory subunit; purchased Millipore 14-603-K
Conditions: purified enzyme, mean ± spread (n), read-out: Biochemical IC50
experimental endpoint: IC50 (nM)
Your answer is read as nM, so omit the unit and give the number.

Prompt line: Please give the measured IC50 for this compound: CC(C)n1c([C@H](C)Nc2ncnc(N)c2C#N)cc2cccc(-c3ccc(=O)n(C)c3)c2c1=O
Response line: 1510

###

System: p110δ
Experiment: isoform-specific cell-based assay, pAKT S473 ELISA
Settings: p110δ-specific cell-based assay, pAKT S473; read-out: Cellular IC50
Method: Phospho-Akt1 (S473) sandwich ELISA antibody kit (Cell Signaling Technology, cat. no. 7143) was utilized to analyze pAKT signal in cells as described previously by Winkler et al. ([11]) (for data see Table 2). Briefly, SKOV3 and 786.0 cells were seeded into 96-well cell culture-graded plates at a density of […] per 200 µl culture media per well. […] Medium was then aspirated and 50 µL/well of ice-cold lysis buffer was added. pAKT level was determined according to the manufacturer’s instruction.
experimental endpoint: pIC50
// returns pIC50 (minus log10 of molar concentration), number only

Prompt line: Missing value: pIC50, p110δ, entry CC(C)n1c([C@H](C)Nc2ncnc(N)c2C#N)cc2cccc(-c3ccc(=O)n(C)c3)c2c1=O . Fill in?
Response line: 10.00

###

Biological target: p110β (Homo sapiens, UniProt P42338)
Test: isoform-specific cell-based assay, pAKT S473 ELISA
Design: endogenous in cells; host or cells: 786.0
Settings: read-out: Cellular IC50
experimental endpoint: pIC50
Scale for pIC50: -log10 of concentration given in mol/L; no unit attached.

Prompt line: Form field: reported pIC50 of CC(C)n1c([C@H](C)Nc2ncnc(N)c2C#N)cc2cccc(-c3ccc(=O)n(C)c3)c2c1=O
Response line: 6.99

###

Test system: p110α
Experiment: isoform-specific cell-based assay, pAKT S473 ELISA
Details: read-out: Cellular IC50
experimental endpoint: pIC50
pIC50 field: float, defined as -log10 of concentration (mol/L).

Prompt line: Reported pIC50 for CC(C)n1c([C@H](C)Nc2ncnc(N)c2C#N)cc2cccc(-c3ccc(=O)n(C)c3)c2c1=O [IPI-3063] : what is it?
Response line: 5.72
